- target: full-length FLAG-KDM5A (Homo sapiens, UniProt P29375)
- Construct: Sf21 insect cells were infected with baculovirus to express full-length FLAG-KDM5A; made in house; host or cells: Sf21 insect cells (baculovirus)
- Sequence (P29375 whole entry): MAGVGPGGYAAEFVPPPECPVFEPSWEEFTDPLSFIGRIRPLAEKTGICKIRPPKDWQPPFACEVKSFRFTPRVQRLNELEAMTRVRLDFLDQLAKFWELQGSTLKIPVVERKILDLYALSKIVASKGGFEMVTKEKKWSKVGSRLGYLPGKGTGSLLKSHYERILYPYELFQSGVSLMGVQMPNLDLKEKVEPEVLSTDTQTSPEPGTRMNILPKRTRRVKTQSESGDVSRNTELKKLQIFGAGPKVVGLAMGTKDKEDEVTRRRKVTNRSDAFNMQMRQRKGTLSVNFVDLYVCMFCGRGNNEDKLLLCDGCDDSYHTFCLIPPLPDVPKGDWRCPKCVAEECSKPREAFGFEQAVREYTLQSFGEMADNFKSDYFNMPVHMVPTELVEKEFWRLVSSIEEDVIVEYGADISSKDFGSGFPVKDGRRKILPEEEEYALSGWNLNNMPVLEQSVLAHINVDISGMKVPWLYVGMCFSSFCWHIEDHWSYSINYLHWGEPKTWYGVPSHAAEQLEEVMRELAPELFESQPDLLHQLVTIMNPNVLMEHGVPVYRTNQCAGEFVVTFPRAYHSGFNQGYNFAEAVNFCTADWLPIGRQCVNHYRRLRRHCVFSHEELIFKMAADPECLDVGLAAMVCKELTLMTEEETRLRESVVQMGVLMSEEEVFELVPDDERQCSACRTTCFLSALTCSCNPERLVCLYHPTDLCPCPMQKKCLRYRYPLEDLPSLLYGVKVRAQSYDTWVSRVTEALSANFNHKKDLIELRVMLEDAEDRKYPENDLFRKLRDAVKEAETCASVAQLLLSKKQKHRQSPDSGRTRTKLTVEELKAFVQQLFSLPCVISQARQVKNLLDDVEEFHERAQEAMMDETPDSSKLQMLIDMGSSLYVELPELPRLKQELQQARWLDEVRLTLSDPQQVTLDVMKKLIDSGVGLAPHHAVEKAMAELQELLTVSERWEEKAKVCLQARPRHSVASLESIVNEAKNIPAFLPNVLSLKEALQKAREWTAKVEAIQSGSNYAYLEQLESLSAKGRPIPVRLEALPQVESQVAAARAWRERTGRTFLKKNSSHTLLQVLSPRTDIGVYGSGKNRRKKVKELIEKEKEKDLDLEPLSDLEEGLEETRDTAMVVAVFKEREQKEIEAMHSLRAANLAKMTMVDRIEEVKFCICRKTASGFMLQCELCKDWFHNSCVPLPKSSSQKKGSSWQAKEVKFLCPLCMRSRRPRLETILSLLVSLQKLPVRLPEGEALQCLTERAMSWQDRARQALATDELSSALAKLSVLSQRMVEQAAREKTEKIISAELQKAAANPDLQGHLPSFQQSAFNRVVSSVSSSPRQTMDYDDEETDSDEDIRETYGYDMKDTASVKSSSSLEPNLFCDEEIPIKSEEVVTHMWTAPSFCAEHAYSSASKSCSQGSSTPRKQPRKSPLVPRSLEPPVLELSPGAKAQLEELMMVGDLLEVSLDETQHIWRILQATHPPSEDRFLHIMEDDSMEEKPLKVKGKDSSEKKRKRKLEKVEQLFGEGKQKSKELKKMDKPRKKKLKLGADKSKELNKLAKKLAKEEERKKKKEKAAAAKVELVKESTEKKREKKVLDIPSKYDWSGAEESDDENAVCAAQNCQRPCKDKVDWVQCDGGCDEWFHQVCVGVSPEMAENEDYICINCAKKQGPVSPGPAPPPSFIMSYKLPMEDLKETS
- methodNotes: AlphaScreen KDM5A demethylation assay (bio-H3K4me3 peptide)
- Assay type: biochemical
- conditionLabel: 0.05-50 μM compound, 1 hour reactions; read-out: average in vitro IC50 against KDM5A
parameterMeasured: pIC50
Remember, pIC50 is on a log scale: it is -log10 of the molar concentration.

# input Please give the measured pIC50 for this molecule: C=CCn1c(S)nnc1CNC(=O)c1cccc(C)c1 [YUKA2]
# output 5.88

# input Please give the measured pIC50 for this molecule: C=CCOc1c(CNn2cnnc2S)cccc1OC [YUKA1]
# output 5.58

All figures here come from patent US20190151289A1.
